Reference source for all entries: PubChem BioAssay AID602329

Give inhibition for every item shown.
TARGET: DNA repair and recombination protein RAD54-like (Homo sapiens) (UniProt Q92698)
Sequence (Q92698 whole entry, looked up): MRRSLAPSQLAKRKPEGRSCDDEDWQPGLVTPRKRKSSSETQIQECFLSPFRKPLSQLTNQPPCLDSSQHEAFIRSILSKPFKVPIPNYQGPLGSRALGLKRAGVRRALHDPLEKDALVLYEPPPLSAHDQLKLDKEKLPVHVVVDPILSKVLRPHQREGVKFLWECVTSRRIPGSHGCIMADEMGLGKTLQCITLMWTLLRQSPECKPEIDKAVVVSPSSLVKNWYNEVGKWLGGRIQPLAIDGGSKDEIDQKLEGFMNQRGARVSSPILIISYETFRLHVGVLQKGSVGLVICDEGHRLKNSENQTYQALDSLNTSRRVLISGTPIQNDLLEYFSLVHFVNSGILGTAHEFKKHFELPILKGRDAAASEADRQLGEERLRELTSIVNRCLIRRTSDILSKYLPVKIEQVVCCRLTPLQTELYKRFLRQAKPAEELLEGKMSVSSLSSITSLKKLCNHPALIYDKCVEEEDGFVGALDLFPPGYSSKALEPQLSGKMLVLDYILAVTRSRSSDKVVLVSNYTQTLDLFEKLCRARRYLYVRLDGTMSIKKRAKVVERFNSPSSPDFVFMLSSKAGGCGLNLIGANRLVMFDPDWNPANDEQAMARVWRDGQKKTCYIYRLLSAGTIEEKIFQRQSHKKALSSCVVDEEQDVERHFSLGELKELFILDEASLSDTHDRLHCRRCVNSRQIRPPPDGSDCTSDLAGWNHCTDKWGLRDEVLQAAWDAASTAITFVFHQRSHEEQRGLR
ASSAY_SUMMARY: inhibitors of human RAD54 branch migration, primary screen, biochemical, fluorescence, single point (AID 602329);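 further: 0% = median of neutral control wells and 100% = median of positive control wells; inhibitors cause a drop in the FAM fluorescence signal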
CONDITION: RAD54 Holliday junction branch migration, FAM/BHQ fluorescence; at 10.4 µM; hits give high values
Among all 360,000 compounds or so, about 510 (0.14%) were called active. The sample as a whole holds a higher share of actives than the screen did.
Answer format: numeric, % implied, no suffix.

Requested field: inhibition. Item: Cc1cc(C)c2nc3nc(C)cc(C)c3c(N)c2c1
96

Queued: CO[C@@H](CN(C)S(=O)(=O)c1cccc(Cl)c1)[C@H](C)CN([C@H](C)CO)S(=O)(=O)c1cccc(Cl)c1
1.71

Queued: CC1CCc2sc3nc(N4CCN(CCO)CC4)n4ncnc4c3c2C1 (centres undefined)
53.7

Queued: Cc1cccc(N(C)C(=O)c2cc3c(=O)[nH]c4ccc(C)cc4c3s2)c1
-5.82

Queued: COc1ccc(NC(=O)Nc2ccc3c(c2)CC(=O)N([C@@H](C)CO)C[C@H](C)[C@@H](CN(C)CC2CCCCC2)O3)cc1
3.95

Queued: COc1ccc(S(=O)(=O)Nc2cccc3c2O[C@@H](CN(C)S(=O)(=O)c2c(C)noc2C)[C@@H](C)CN([C@H](C)CO)C3=O)cc1
4.47

Queued: CN1C[C@@H](CO)O[C@@H](n2cnc3c(N4CCN(CCO)CC4)ncnc32)C1
-0.96

Queued: O=C(N[C@@H]1C=C[C@H](CC(=O)N2CCOCC2)O[C@H]1CO)c1ccccn1
-0.273

Queued: CCN(CC)CCCNC(=O)c1cc2c(=O)[nH]c3ccc(C)cc3c2s1
51.5

* * *

Give inhibition for every item shown.
TARGET: DNA repair and recombination protein RAD54-like (Homo sapiens)
ASSAY_SUMMARY: inhibitors of human RAD54 branch migration, primary screen, biochemical, fluorescence, single point (AID 602329);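 further: 0% = median of neutral control wells and 100% = median of positive control wells; inhibitors cause a drop in the FAM fluorescence signal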
CONDITION: RAD54 Holliday junction branch migration, FAM/BHQ fluorescence; at 10.4 µM; hits give high values
Hit rate of the full screen: of about 360,000 compounds, about 510 (0.14%) were called active. Shown is part of a subset that was picked to be rich in actives.
Answer format: numeric, % implied, no suffix.

Requested field: inhibition. Item: COCC#Cc1cnc2c(c1)C(=O)N([C@H](C)CO)C[C@H](C)[C@H](CN(C)C(=O)Nc1cc(F)ccc1F)O2
0.435

Queued: CN1c2ccc(-c3ccccc3)cc2[C@@H]2[C@@H](CCN2C(=O)c2ccccc2F)[C@@H]1CO
4.56

Queued: CO[C@H]1CN(C)C(=O)c2cc(NC(=O)C3CC3)ccc2OC[C@H](C)N(CC2CCCC2)C[C@@H]1C
-8.31

Queued: O=C(CC1CC1)Nc1ccc2c(c1)[C@@H]1C[C@@H](CC(=O)NC3CCCCC3)O[C@H](CO)[C@@H]1O2
-1.82

Queued: C[C@@H]1CN([C@@H](C)CO)C(=O)c2cc(-c3ccncc3)cnc2O[C@@H]1CN(C)C(=O)C1CCCCC1
-1.52

Queued: C#Cc1ccc([C@H]2C=C(C(=O)O)O[C@@H](OCC)[C@@H]2CCCO)cc1
-9.94

Queued: CO[C@H]1CN(C)C(=O)c2ccc(NC(=O)c3cc(C)on3)cc2OC[C@H](C)N(C)C[C@H]1C
-1.45

Queued: CN(C)C(=O)C[C@@H]1C[C@@H]2c3cc(NC(=O)NC4CCCCC4)ccc3O[C@@H]2[C@H](CO)O1
-2.4
